A collection of binders and their measured active PAI-1 by uPA-PAI-1 complex ELISA, hPAI-1 Standard, Y50%
measurement-target: human PAI-1 (human, UniProt P05121 24-402)
Sequence (P05121 24-402 limits assumed): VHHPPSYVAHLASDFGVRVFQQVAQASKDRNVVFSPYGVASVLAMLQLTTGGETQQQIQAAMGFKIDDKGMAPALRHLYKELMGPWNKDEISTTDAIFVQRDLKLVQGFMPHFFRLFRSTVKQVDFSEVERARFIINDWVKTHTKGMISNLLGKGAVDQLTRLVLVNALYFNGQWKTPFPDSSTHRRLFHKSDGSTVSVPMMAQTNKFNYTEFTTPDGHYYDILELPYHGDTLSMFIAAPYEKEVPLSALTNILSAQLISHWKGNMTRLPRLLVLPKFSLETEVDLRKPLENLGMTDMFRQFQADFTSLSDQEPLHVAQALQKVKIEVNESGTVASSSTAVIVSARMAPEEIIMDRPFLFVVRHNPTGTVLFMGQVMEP
assay-summary: cell-based or functional assay
metric: active PAI-1 by uPA-PAI-1 complex ELISA, hPAI-1 Standard, Y50% (%)

A44-hv13 (antibody, V domains shown, humanized A44, HEK293; constant regions as for A44-hv1; also called LC2 x HC5b; variant 13) VH: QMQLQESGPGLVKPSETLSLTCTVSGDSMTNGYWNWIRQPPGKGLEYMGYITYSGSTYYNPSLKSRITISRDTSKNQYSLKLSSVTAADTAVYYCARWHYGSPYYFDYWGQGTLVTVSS VL: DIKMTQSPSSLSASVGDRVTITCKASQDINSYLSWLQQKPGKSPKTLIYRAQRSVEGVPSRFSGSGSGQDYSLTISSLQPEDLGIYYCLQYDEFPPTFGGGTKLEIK | 52.8
A44-hv11 (antibody, V domains shown, humanized A44, HEK293; compared with a human IgG1 isotype control; constant regions as for A44-hv1; also called A44V11; A44v11) VH: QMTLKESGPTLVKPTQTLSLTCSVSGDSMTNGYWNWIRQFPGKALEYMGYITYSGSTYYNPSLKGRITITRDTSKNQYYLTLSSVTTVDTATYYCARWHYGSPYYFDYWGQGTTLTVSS VL: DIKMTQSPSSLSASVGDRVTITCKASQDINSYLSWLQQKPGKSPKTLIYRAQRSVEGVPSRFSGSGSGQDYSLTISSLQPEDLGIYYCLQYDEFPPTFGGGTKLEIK | 50.8
A44-hv12 (antibody, V domains shown, humanized A44, HEK293; constant regions as for A44-hv1; also called LC4 x HC3; variant 12) VH: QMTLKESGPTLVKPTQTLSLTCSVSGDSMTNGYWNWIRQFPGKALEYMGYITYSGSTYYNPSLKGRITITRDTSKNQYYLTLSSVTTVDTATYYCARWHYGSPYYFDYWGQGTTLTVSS VL: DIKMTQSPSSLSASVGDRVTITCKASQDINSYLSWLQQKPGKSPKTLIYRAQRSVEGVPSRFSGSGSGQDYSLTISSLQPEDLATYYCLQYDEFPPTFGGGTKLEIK | 53.5
A44-hv14 (antibody, V domains shown, humanized A44, HEK293; constant regions as for A44-hv1; also called LC4 x HC5b; variant 14) VH: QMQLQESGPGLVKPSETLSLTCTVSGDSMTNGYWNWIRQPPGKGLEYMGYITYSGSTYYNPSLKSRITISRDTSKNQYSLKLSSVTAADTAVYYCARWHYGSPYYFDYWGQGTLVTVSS VL: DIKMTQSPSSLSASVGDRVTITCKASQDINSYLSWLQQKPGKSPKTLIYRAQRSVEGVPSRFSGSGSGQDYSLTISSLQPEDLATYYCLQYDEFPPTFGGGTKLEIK | 52.5
